system.tested: UniProtKB P0DTD1
assay.notes: biochemical
setup.conditions: read-out: Activity (% enzyme activity by fluorescence relative to initial enzyme activity), compound at 17 μM, duplicates, 20 min pre-incubation
What remaining activity at 17 µM was measured for each of the following?

Some compounds with known remaining activity at 17 µM results, for comparison:
>  <compound>
COc1cc(O)c(CC=C(C)C)c2oc(-c3ccc(O)cc3)c(O)c(=O)c12

>  <remaining activity at 17 µM>
> 80%

$$$$
>  <compound>
CC(C)=CCc1c(O)c(CC=C(C)C)c2c(c1O)C(=O)[C@H](O)[C@@H](c1ccc(O)cc1O)O2

>  <remaining activity at 17 µM>
> 80%

$$$$
>  <compound>
CC(C)=CCc1c(O)cc(O)c2c(=O)c(O[C@@H]3O[C@@H](C)[C@H](O)[C@@H](O)[C@H]3O[C@@H]3OC[C@@H](O)[C@H](O)[C@H]3O)c(-c3ccc(O)cc3)oc12 [Ikarisoside F]

>  <remaining activity at 17 µM>
10 to 80%

$$$$
>  <compound>
C=C(C)C(O)Cc1c(O)c(CC=C(C)C)c(O)c2c(=O)c(-c3ccc(O)cc3)coc12 (stereo not drawn)

>  <remaining activity at 17 µM>
> 80%

$$$$
>  <compound>
COc1ccc(-c2oc3c(CC=C(C)C)c(O)cc(O)c3c(=O)c2O[C@@H]2O[C@@H](C)[C@H](OC(C)=O)[C@@H](O[C@@H]3O[C@H](COC(C)=O)[C@@H](O)[C@H](O)[C@H]3O)[C@H]2O)cc1 [Korepimedoside A]

>  <remaining activity at 17 µM>
10 to 80%

$$$$
>  <compound>
CC(C)=CCc1cc(-c2coc3cc(O)ccc3c2=O)ccc1O

>  <remaining activity at 17 µM>
10 to 80%

$$$$
>  <compound>
CC(C)=CCc1cc([C@H]2Oc3cc(O)cc(O)c3C(=O)[C@@H]2O)c(O)c(CC=C(C)C)c1O

>  <remaining activity at 17 µM>
10 to 80%

$$$$
>  <compound>
CC(C)=CCC/C(C)=C/Cc1c(O)ccc(-c2oc3cc(O)cc(O)c3c(=O)c2CC=C(C)C)c1O

>  <remaining activity at 17 µM>
10 to 80%

$$$$
>  <compound>
COc1ccc(-c2oc3c(CC=C(C)C)c(O)cc(O)c3c(=O)c2O[C@@H]2O[C@@H](C)[C@H](O)[C@@H](O)[C@H]2O[C@@H]2O[C@@H](C)[C@H](O)[C@@H](O)[C@H]2O)cc1 [2″-O-Rhamnosylicariside II]

>  <remaining activity at 17 µM>
10 to 80%

$$$$
>  <compound>
CC(C)=CCc1c2c(c(O)c3c(=O)c4c(oc13)-c1cc(O)c(O)cc1OC4C=C(C)C)C=CC(C)(C)O2 (stereo not drawn)

>  <remaining activity at 17 µM>
> 80%

$$$$

Please give remaining activity at 17 µM for each item listed below.
1. COc1ccc(-c2oc3c(CC=C(C)C)c(O[C@@H]4O[C@H](CO)[C@@H](O)[C@H](O)[C@H]4O)cc(O)c3c(=O)c2O[C@@H]2O[C@@H](C)[C@H](O)[C@@H](O)[C@H]2O[C@@H]2O[C@H](CO)[C@@H](O)[C@H](O)[C@H]2O)cc1 [Epimedin A]
2. CC(C)=CCc1c(O)c(C)c(O)c2c1O[C@H](c1ccc(O)cc1)CC2=O

**A:**
1: 10 to 80%; 2: < 10%
